// note: IC50 values for Receptor tyrosine-protein kinase erbB-2 (Homo sapiens, UniProt P04626) were reported in different studies
Answer in µM, number only, no unit symbol.

The cases that follow already have their IC50 on record.
compound="CNC(CS(C)(=O)=O)c1ccc(-c2ccc3ncnc(Nc4ccc(OCc5cccc(F)c5)c(Cl)c4)c3c2)o1 (racemic)" recorded_metric=IC50 unit_name=µM test_result=0.001
compound="CCN(CC)C(C)/C=C/C(=O)Nc1cc2c(Nc3ccc(F)c(Cl)c3)c(C#N)cnc2cc1OC (centres undefined)" recorded_metric=IC50 unit_name=µM test_result=9.58

Kindly note: Receptor tyrosine-protein kinase erbB-2 (Homo sapiens, UniProt P04626), NC(=O)C1CCN(Cc2ccn3ncnc(Nc4ccc5c(cnn5Cc5cccc(F)c5)c4)c23)CC1 , IC50 value reported: 0.31
